Source: ChEMBL document CHEMBL1132325

- assayed target: UniProtKB P06870
- Sequence (P06870 whole entry): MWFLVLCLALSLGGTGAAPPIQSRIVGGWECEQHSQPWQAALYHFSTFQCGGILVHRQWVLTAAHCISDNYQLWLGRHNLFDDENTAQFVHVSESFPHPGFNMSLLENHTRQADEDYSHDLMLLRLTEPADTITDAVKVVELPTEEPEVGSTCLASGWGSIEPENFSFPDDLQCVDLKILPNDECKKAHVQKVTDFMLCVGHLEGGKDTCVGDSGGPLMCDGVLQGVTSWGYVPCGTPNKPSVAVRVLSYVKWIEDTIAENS
- assay name: Compound was evaluated for its binding affinity against kallikrein
pKi: −log10 of the molar value.
endpoint: pKi

compound	endpoint	readout value
CC[C@H](C)[C@@H](N)C(=O)N[C@@H](Cc1ccccc1)C(=O)N(CCCCCCN)C1CSCCC1=O (stereo partly specified)	pKi	3.20

###

- assayed target: Plasminogen (Homo sapiens, UniProt P00747)
- Sequence (P00747 97-580 limits assumed): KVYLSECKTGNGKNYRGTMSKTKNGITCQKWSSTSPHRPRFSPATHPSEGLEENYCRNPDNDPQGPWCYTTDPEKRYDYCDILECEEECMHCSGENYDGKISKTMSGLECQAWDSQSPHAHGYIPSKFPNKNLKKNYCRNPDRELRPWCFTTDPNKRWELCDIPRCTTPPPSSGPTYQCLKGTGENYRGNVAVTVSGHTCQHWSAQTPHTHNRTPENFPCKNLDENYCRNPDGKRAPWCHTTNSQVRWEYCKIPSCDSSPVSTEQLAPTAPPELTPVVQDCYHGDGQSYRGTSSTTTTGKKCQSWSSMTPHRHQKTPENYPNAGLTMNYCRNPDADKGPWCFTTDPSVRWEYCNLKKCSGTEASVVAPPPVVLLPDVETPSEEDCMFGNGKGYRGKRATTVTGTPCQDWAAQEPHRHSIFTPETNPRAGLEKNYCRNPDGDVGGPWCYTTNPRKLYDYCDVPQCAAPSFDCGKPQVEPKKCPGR
- Sequence (P00747 581-810 limits assumed): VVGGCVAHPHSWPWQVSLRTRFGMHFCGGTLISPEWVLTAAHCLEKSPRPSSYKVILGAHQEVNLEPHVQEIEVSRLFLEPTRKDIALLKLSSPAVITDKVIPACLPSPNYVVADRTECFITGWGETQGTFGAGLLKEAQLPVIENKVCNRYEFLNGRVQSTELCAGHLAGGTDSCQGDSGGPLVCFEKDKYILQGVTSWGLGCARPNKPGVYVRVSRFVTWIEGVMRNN
- assay name: Compound was evaluated for its binding affinity against plasmin

compound	Ki (mM)
CC[C@@H](C)[C@@H](N)C(=O)N[C@@H](Cc1ccccc1)C(=O)N(CCCCCCN)C1CSCCC1=O (some centres undefined)	0.13
CCC(C)[C@@H](N)C(=O)N[C@@H](Cc1ccccc1)C(=O)N(CCCCCCN)C1CCCCC1 (some centres undefined)	0.52
CC[C@@H](C)[C@@H](N)C(=O)N[C@@H](Cc1ccccc1)C(=O)NC1CSCCC1=O (stereo in doubt; form 1)	16
CC[C@@H](C)[C@@H](N)C(=O)N[C@@H](Cc1ccccc1)C(=O)NC1CSCCC1=O (stereo in doubt; form 2)	9

###

- assayed target: Prothrombin (Homo sapiens)
pKi: −log10 of the molar value.

molecule	pKi
CC[C@H](C)[C@@H](N)C(=O)N[C@@H](Cc1ccccc1)C(=O)N(CCCCCCN)C1CSCCC1=O (stereo partly specified)	3.14
